# Target or test system: STAT3 (Homo sapiens)
# Construct: plasmid pSTAT3-TA-luc), which contains a stably operating STAT3 promoter; endogenous in cells
# Sequence (P40763 whole entry): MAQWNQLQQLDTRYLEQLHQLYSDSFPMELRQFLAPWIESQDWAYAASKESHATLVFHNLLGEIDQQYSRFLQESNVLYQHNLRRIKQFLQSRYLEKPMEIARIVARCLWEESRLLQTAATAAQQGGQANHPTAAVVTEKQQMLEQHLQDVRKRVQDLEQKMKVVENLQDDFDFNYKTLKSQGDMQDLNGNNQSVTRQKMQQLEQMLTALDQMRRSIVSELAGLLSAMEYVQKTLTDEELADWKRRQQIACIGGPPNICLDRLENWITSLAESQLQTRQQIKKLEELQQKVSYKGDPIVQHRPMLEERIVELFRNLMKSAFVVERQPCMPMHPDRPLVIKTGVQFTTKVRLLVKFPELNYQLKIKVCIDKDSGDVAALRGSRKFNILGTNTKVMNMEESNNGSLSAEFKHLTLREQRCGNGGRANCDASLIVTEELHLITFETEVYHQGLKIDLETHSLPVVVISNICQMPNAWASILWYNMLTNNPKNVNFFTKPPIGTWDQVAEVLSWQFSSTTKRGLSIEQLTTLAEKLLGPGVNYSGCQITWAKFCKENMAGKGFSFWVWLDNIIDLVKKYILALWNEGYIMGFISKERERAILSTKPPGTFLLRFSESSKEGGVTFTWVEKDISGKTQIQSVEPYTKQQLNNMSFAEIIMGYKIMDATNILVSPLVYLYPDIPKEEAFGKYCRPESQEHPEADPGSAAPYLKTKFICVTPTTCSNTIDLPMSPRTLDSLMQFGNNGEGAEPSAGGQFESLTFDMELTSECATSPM
# Experiment summary: STAT3 reporter gene assay (luciferase), LNCaP stable cell line (pSTAT3-TA-luc), IL-6 stimulation
# Format: cell-based
The label is satisfied for IC50 below 0.3 µM and not satisfied for IC50 equal to or exceeding 0.3 µM.

# Compound, Group label
records = [
    ("CC(C)(c1cc(Cl)cc(NC(=O)c2cc3cc(NS(C)(=O)=O)ccc3s2)c1)c1ccc(Cl)s1 [Example 174]", "satisfied"),
    ("CC(C)Oc1cc(OC(F)(F)F)cc(C(C)(C)c2cc(Cl)cc(NC(=O)c3cc4cc(N(CCN5CCOCC5)S(C)(=O)=O)c(F)cc4s3)c2)c1 [Example 217]", "not satisfied"),
    ("CC(C)(c1cc(Cl)cc(NC(=O)c2cc3cc(NS(C)(=O)=O)c(Cl)cc3s2)c1)c1ccc(C#N)s1 [Example 186]", "satisfied"),
    ("COc1cc2cc(C(=O)Nc3cccc(-c4ccc(F)cc4F)c3)[nH]c2cc1NS(C)(=O)=O [Example 236]", "not satisfied"),
    ("Cn1cc(Cc2cc(OC(F)(F)C(F)F)cc(C(C)(C)c3cc(Cl)cc(NC(=O)c4cc5cc(NS(C)(=O)=O)ccc5s4)c3)c2)cn1 [Example 138]", "satisfied"),
    ("COc1cc(OC(F)(F)F)cc(-c2cc(Cl)cc(NC(=O)c3cc4cc(NS(C)(=O)=O)ccc4s3)c2)c1 [Example 324]", "not satisfied"),
    ("CC(C)Oc1cc(OC(F)(F)F)cc(C(C)(C)c2cc(Cl)cc(NC(=O)c3cc4cc(NS(=O)(=O)CCN5CCOCC5)ccc4s3)c2)c1 [Example 209]", "satisfied"),
    ("O=C(Nc1cccc(-c2ccc(F)cc2C(F)(F)F)c1)c1cc2ccc([N+](=O)[O-])cc2[nH]1 [Example 244]", "not satisfied"),
    ("COc1cc2cc(C(=O)Nc3cc(Br)cc(-c4ccc(F)cc4F)c3)[nH]c2cc1NS(C)(=O)=O [Example 303]", "satisfied"),
    ("COc1cc(F)cc(C(C)(C)c2cc(Cl)cc(NC(=O)c3cc4cc(NS(C)(=O)=O)ccc4s3)c2)c1 [Example 67]", "satisfied"),
    ("Cc1noc(C)c1S(=O)(=O)Nc1ccc2sc(C(=O)Nc3cc(Cl)cc(C(C)(C)c4cc(OC(C)C)cc(OC(F)(F)F)c4)c3)cc2c1 [Example 199]", "not satisfied"),
    ("CC(C)Oc1cc(OC(F)(F)F)cc(C(C)(C)c2cc(Cl)cc(NC(=O)c3cc4cc(NS(=O)(=O)N5CCOCC5)ccc4s3)c2)c1 [Example 103]", "satisfied"),
    ("CS(=O)(=O)Nc1ccc2sc(C(=O)Nc3cc(Cl)cc(Oc4ccc(OC(F)(F)F)cc4)c3)cc2c1 [Example 454]", "satisfied"),
    ("CC(C)(c1cccc(CN2CCNCC2)c1)c1cc(Br)cc(NC(=O)c2cc3cc(NS(C)(=O)=O)ccc3s2)c1 [Example 118]", "not satisfied"),
    ("COc1cc(NC(=O)c2cc3cc(NS(C)(=O)=O)ccc3s2)cc(C2(c3cc(OC)cc(OC(F)(F)F)c3)CC2)c1 [Example 427]", "satisfied"),
    ("C=CS(=O)(=O)Nc1ccc2sc(C(=O)Nc3cc(Cl)cc(C(C)(C)c4cc(OC(C)C)cc(OC(F)(F)F)c4)c3)cc2c1 [Example 207]", "not satisfied"),
    ("COc1cccc(C(C)(C)c2cc(Cl)cc(NC(=O)c3cc4cc(NS(C)(=O)=O)ccc4s3)c2)c1 [Example 106]", "not satisfied"),
    ("CCOC(=O)COc1ccc2cc(C(=O)Nc3cccc(-c4ccc(F)cc4F)c3)[nH]c2c1 [Example 255]", "not satisfied"),
    ("CC(O)(c1ccccc1)c1cccc(NC(=O)c2cc3ccc(NS(C)(=O)=O)cc3[nH]2)c1 (stereo not drawn) [Example 435]", "not satisfied"),
    ("CS(=O)(=O)Nc1ccc2cc(C(=O)Nc3cc(-c4ccc(C#N)nc4)cc(-c4ccc(F)cc4F)c3)[nH]c2c1 [Example 359]", "not satisfied"),
    ("CN(C)c1cc(NC(=O)c2cc3cc(NS(C)(=O)=O)ccc3s2)cc(-c2ccc(F)cc2F)c1 [Example 375]", "satisfied"),
    ("CS(=O)(=O)Nc1ccc2cc(C(=O)Nc3cc(-c4cccc(O)n4)cc(-c4ccc(F)cc4F)c3)[nH]c2c1 [Example 384]", "not satisfied"),
    ("CC(C)Oc1cc(OC(F)(F)F)cc(C(C)(C)c2cc(Cl)cc(NC(=O)C3=Cc4cc(NS(C)(=O)=O)ccc4S3(=O)=O)c2)c1 [Example 222]", "not satisfied"),
    ("CS(=O)(=O)Nc1cc2cc(C(=O)Nc3cc(Cl)cc(-c4ccc(F)cc4F)c3)sc2cc1F [Example 322]", "satisfied"),
    ("CS(=O)(=O)Nc1ccc2cc(C(=O)Nc3cccc(S(=O)(=O)c4cccc(Br)c4)c3)[nH]c2c1 [Example 414]", "not satisfied"),
    ("CC(C)Oc1cc(OC(F)(F)F)cc(C(C)(C)c2cc(Cl)cc(NC(=O)c3cc4c(N5CCOCC5)c(NS(C)(=O)=O)ccc4s3)c2)c1 [Example 66]", "not satisfied"),
]
